For each of the sequences below, state its apparent KD of K4 kissing-loop reporter.
Tested on: K4 kissing-loop RNA reporter;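 note: bound reporter read as fluorescence of individual clusters on recovered sequencing chips by microscopy, with normalized cluster intensities fitted with a binding model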
Test: apparent KD of K4 kissing-loop reporter; higher = weaker reporter binding
Conditions: Eterna round: R107; input ligand: none
Numbers only, in nM.

1. GCCGUAGAUGGAAGGAGCGUGGUAGACUGUUGAAGUGAUGUUUCAACUCAUUAAGCCCAACCACAGGUAGGUCGCCAUCUACGGC
107

For each entry beneath this line, provide reported apparent KD of K4 kissing-loop reporter.
1. ACGACGCAUAGUGAUACCAGCAUUAUAUGAGUGAUGUUCUACCUAAAAUGGUAAUAAUGAUGCCCUUGGCAGCACUAUGCGUCAG [KL-SSTheoB2]
2. AGCUCAGCGUGACUCGAUAAGAGUCACAAACGAGGACCGGUACGGCCGCCACUCGAAAUAAAGGGAGUGAUGUUCUCGCUGAGCA [#SwitchBubble 4 #StaticStem #K4Late]
3. UGCCGCAAGGCGAGCGCUCCCACUCCGGAAGGAGCGCCCGCAAGGGCAGGUAGGUCGCCGGAGUGAUGUUCCGGUGGAGGGCUCG [#2 Exclusion - Arginine A Attempt #25 (Inspired by Omei)]
4. AGGUUUUGAUUAGGAUAUGCACUGAGGAGGAGAAUAUAGUGAUGUUAUAUAAGAGGAAGUAGUAGAGUAGAAGGGAUUGAGGUUU [SSFMNB.S]
5. CAUACGCAUGGAGGAUAUGAGAUUUCUCAUAUUAUUUAAUAUUCUCAGUGAUGUUGGGAUUUAAACUCAGAAGGCCAUGUGUAUG [Ex FMN B 7]
6. UAUAUAGUGACGGCCGCCACUAUAUUAAUGUUUUUGUUAGAGUGAUGUUUUGUUUUUUAAUUUUAUAGGACCGGGUUAUAUGUUA [xnxmullin]
7. AAGUUUUAUAAACUCAUGGUUUCGACAGAUACCAGCUUCGAGAGGAGCCCUUGGCAGCUGCAUGAGUGAUGUUCAUGUACGAAGA [KL-XTheoA8]
8. CUAGGUAACACAGGAUAUGUCCGAGUGAUGUUCGAGCCUUUCCAUUGACGAAAUUAAUGGUGGGUGACAGAAGGGUGAGUACUGA [Uses]

Result string:
1. 461
2. 370
3. 174
4. 224
5. 159
6. 253
7. 480
8. 1090
